These data points were gathered from patent US20240010721A1.

# System tested: T1, cynomolgus ROR1 (cynoROR1) on CHO-K1 cells (cynomolgus, UniProt A0A2K5WTX7 30-937)
# T1 construct: whole, on cells; also called CHO-K1-cynoROR1; CHO-K1-cyROR1
# Assay explanation: FACS, CHO-K1-cynoROR1 cells
Measurement label: MAX(MFI)
Unit MFI implied. Number only.

Asked: Give its MAX(MFI) value. Item: PR001371 (antibody, human IgG1, kappa, V domains shown, fully human IgG1, kappa) VH: QVQLVESGGGVVQPGRSLRLSCAASGFTFSSYGMLWVRQAPGKGLEWVAVAWYDGVSEDYADSVKGRFTISRDNSMNTLSLQMNSLRAEDTAVYYCAREQARSFDLWGRGTLVTVSS VL: DIQLTQSPSSLSASVGDRVTITCRASQTINNWLAWYQQKPGKAPKLLIYKASSLESGVPSRFSGSGSGTEFTLTISSLQPDDFATYYCQQYNSYSPMYTFGQGTKVEIKR
Given back: 28400

Asked: Give its MAX(MFI) value. Item: PR001359 (antibody, human IgG1, kappa, V domains shown, fully human IgG1, kappa) VH: QVQLVESGGGVVQPGRSLRLSCAASGFTFSTYGMHWVRQAPGKGLEWVAVTWYDGSDKDYADSVKGRFTISRDTSKNTLYLQMNSLRAEDTAVYYCAREQARSFDLWGRGTLVTVSS VL: DIVMTQSPSTLSASVGDRVTITCRASQSVNNWLAWYQQKPGKAPKLLIYKASSLESGVPSRFSGSGSGTEFTLTISSLQPDDFATYYCQQYKSYSPMYTFGQGTKVEIKR
Given back: 27200
